Assay: yeast display, Sf9 membrane polyspecificity reagent, FACS + sequencing; frameworks hold sequencing errors
assay-endpoint: polyreactivity (PSR sort gate)

Solved cases (6 shown):
QVQLVESGGGLVQAGGSLRLICAASGFTFSGNTMGWYRQAPGKERELVATISRTGGITYYADSVKGRFTISRDNAKNTVYLQMNSLKPEDTAVYYCNRRYYYFVYPDDYWGQGTQVTVSS ... high polyreactivity
QVQLVESGGGLVQAGGSLRLSCAASGLTFGTNAMGWSRQAPGKERELVAAISTSSGSTYYSDSVKGRFTISRDNAKNTDYLQMNSLKPEDTAVYYSAAVTVTNLSYYRYYYWGQGTQVTVSS ... low polyreactivity
QDQLVESGGGLVQAGGSLRLSCAASGRTFHSYVMGWYRQAPGKERELVAAISRSGGNTYYADSVKGRFTISRDNAKNTVYLQMNSLKPEDTAVYYCAAALSAYVKWDYYYWGQGTQVTVSS ... low polyreactivity
QVQLVESGGGLVQAGGSLRLSCAASGRIDVSNAMGWYRQAPGKERELVAAITRTGASTYYADSVKGRCTISRDNAKNNVYVQMNSLKPEDSAVYYSDDVWGWPYWVYRYDYWGQGTQVTVSS ... high polyreactivity
QVQLVESGGGLVQAGGSLRLSCAASGRIFTRYAMGWYRQAPGKERELVAVITRSGGSTYYADSVKGRFTLSRDNAKNTVYLQMNSLKPEDTAVYYCAAKYYGEMYYWGQGTQVTVSS ... low polyreactivity
QVQLVESGGGLVQAGGSLRLSCAASGRTFGRNAMGWYRQAPGERELVAVISRRGSTYYADSVKGRFTISRDNAKNTVYLQMNSLKPEETAVDYCAAYYYIGGKYGSQVYEYDYWGQGTQVTVSS ... low polyreactivity

# batch: return polyreactivity (PSR sort gate) for each of the 5 sequences below
1. QVQLVESGGGLVQAGGSLRLSCAASGRIFVGYAMGWYRQAPGKETELVAAISRDGDNTFYADSVKGRFTISRDNAKNTVYLQMNSLKPEDTAVYYCAVDYWVWYGSAYAYDYYWGQGTQVTVSS
2. QVQLVESGGGLVQAGGSLRLSCAASGRTFPSYAMGWYRQAPGKERELVAAISRSGGSTYYADSVKGRFTISRDNAKNTVYLQMNSLKPEDTAVYYCAAVSRVHFSYIYDYWGQGTQVTVSS
3. QVQLVETGGGLVQAGGSLRLSCAASGSTIYLYAAMGLYRQAPGKESELVAAISGSGGSTFYADSVKGRFTISRDNAKNTVYLQMNSLKPEDTAVYYCAADKRYPYETYRPSVSASDSWGQGTQVTVSS
4. QVQLVESGGGLVQAGGSLRLSCAASGRTFRRNAMGWYRQAPGKERELVATITGGGRTNYADSVKGRFTISRDNAKNTVYLQMNSLKPEDTAVYYCAAAAGSYNTGYGYWGQGTQVTVSS
5. QLQLVESGGGLVQAGGSLRLSCAASGSIFNRYAMGSYRQAPGKERELVAAITRSAARTYYADSVKGRFTISRDNAKTTVYLQMNRLKPEDTAVYYCKAATTPYGYSYYYLGQGTQVTVSS

["low polyreactivity", "high polyreactivity", "low polyreactivity", "high polyreactivity", "high polyreactivity"]
